- target system: Aurora kinase A (Homo sapiens)
- condition details: Compound concentration 20.0 uM, Protein concentration 2.0 uM, Result type QC Liability
- Description: Thermal Shift Assay. Domain: start/stop: E122-S403
Numbered stars: 1 amine (or outer) side, 2 acyl side, 3 side chain; on linkers, the order of the positions; unused ones are H or OH. Bridge positions count the residues as written; N and C are the ends. Square brackets hold non-standard residues; d marks the D form. Peptide text beside a SMILES is read from it. I, II: the chains in the order shown. Hexamethylenediamine = C(CCCN[*:2])CCN[*:1]; Dip = N[C@H](C(=O)O)C(c1ccccc1)c1ccccc1; Chg = N[C@H](C(=O)O)C1CCCCC1; NMeA = CN[C@@H](C)C(=O)O
Reported ΔTm by item:
Your answer is read as °C, so omit the unit and give the number.

Check out these entries, answers already filled in.
# compound, ΔTm, °C
records = [
    ("Cc1nc(Nc2cnn(C3CCNCC3)c2)nc2c1N(C)C(=O)c1cc3ccccc3cc1N2C", 1.73),
    ("CN[C@@H](C)C(=O)N[C@H](C(=O)N1CCC[C@H]1C(=O)N[C@H](C(=O)NCCCCCCNC(=O)[C@@H](NC(=O)[C@@H]1CCCN1C(=O)[C@@H](NC(=O)[C@H](C)NC)C1CCCCC1)C(c1ccccc1)c1ccccc1)C(c1ccccc1)c1ccccc1)C1CCCCC1 (I: H-[NMeA][Chg]P[Dip] / II: H-[NMeA][Chg]P[Dip]; linker I:C-II:C via Hexamethylenediamine)", -1.85),
    ("CC1CNCCc2c1nc1ccnn1c2N1CC(C(=O)N2CCC(C)(C)C2)C1 (centres undefined)", -0.21),
]

Let's switch to this compound now.
Enquiry: Print Aurora kinase A (Homo sapiens) ΔTm for "CC(C)C(=O)N1CCC(c2cn(C)c3ncc(NC(=O)c4cccc(C#N)c4)c(C(F)(F)F)c23)CC1" .
Return: -0.71
